- protocol_text: Emission property of compound in DMSO assessed as fluorescence quantum yield
- Type: physicochemical
property_measured: Activity

Task item: For the molecule shown here, [N-]=[N+]=NCc1cc2n(n1)CC1c3nc(c(-c4cccc(O)c4)c4ccc([nH]4)c(-c4cccc(O)c4)c4nc(c(-c5cccc(O)c5)c5ccc([nH]5)c3-c3cccc(O)c3)C=C4)C1C2 (stereo not given) , give the reported Activity.
Reply: 0.12

Task item: GET /values?readout=Activity&item= OCc1nn2c(c1CO)CC1c3nc(c(-c4cccc(O)c4)c4ccc([nH]4)c(-c4cccc(O)c4)c4nc(c(-c5cccc(O)c5)c5ccc([nH]5)c3-c3cccc(O)c3)C=C4)C1C2 (stereo not given)
Reply: 0.1

Task item: Please give the measured Activity for this molecule: COC(=O)c1cc2n(n1)CC1c3nc(c(-c4cccc(O)c4)c4ccc([nH]4)c(-c4cccc(O)c4)c4nc(c(-c5cccc(O)c5)c5ccc([nH]5)c3-c3cccc(O)c3)C=C4)C1C2 (stereo not given)
Reply: 0.11

Task item: // Activity lookup, key: COC(=O)c1cc2n(n1)CC1c3nc(c(-c4cccc(OC(C)=O)c4)c4ccc([nH]4)c(-c4cccc(OC(C)=O)c4)c4nc(c(-c5cccc(OC(C)=O)c5)c5ccc([nH]5)c3-c3cccc(OC(C)=O)c3)C=C4)C1C2 (stereo not given)
Reply: 0.11

Task item: // Activity lookup, key: OCc1cc2n(n1)CC1c3nc(c(-c4cccc(O)c4)c4ccc([nH]4)c(-c4cccc(O)c4)c4nc(c(-c5cccc(O)c5)c5ccc([nH]5)c3-c3cccc(O)c3)C=C4)C1C2 (stereo not given)
Reply: 0.1
